Reference source for all entries: patent US9771360B2

- study-target: recombinant guanylate cyclase reporter cell line (Rattus norvegicus, UniProt P19686+P20595)
- Construct: expressed in transfected cells
- Sequence (P20595 whole entry): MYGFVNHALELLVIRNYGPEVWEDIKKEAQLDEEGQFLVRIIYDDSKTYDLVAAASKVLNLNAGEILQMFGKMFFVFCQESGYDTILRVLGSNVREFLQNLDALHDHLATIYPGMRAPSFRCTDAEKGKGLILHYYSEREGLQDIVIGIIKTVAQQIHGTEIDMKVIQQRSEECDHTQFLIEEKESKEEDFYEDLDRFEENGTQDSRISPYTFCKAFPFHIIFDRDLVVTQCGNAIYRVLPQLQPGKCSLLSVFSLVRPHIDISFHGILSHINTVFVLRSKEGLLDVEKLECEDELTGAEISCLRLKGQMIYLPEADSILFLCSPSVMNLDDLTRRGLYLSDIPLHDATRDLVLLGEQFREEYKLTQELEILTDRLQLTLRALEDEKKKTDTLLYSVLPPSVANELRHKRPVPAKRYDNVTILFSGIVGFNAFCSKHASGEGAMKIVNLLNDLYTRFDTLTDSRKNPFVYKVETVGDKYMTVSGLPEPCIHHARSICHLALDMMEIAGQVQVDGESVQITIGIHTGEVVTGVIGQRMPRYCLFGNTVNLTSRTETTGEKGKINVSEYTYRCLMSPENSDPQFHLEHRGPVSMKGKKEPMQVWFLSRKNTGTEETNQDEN
- Sequence (P19686 whole entry): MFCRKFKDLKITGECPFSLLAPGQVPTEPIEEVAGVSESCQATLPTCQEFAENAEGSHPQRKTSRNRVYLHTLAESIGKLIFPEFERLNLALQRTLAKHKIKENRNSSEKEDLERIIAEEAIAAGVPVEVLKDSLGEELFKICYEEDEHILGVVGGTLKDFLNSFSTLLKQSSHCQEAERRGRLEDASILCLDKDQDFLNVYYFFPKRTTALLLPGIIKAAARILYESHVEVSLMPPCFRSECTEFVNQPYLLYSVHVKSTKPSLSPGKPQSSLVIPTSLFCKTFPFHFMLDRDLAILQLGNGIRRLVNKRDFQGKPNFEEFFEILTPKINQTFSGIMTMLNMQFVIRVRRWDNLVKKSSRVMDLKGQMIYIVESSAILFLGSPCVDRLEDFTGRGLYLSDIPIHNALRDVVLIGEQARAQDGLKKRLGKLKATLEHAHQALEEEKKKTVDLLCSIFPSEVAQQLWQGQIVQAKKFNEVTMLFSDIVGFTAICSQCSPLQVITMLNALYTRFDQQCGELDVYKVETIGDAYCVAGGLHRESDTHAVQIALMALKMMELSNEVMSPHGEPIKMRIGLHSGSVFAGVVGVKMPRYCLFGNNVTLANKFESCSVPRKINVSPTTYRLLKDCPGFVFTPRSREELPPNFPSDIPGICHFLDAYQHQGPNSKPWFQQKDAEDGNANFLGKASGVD
- assay-method-text: Effect on a recombinant guanylate cyclase reporter cell line (B-2)
- Format: cell-based
- condition: MEC = minimum effective concentration; in some cases mean values from individual determinations
Kindly state MEC for each of the entries shown.

Recorded results for 3 compounds are shown here.
>>> meas_value("Cc1nc2c(OCc3ncccc3F)cccn2c1C(=O)NC(C#N)c1ccc(Cl)cc1 (racemic) [Example 21]")
"10 µM"
>>> meas_value("Cc1cc(OCc2c(F)cccc2F)c2nc(C)c(C(=O)NC(CN)CC#N)n2c1 (racemic) [Example 39]")
"1 µM"
>>> meas_value("CCc1nc2c(OCc3c(F)cccc3F)cc(C)cn2c1C(=O)NC(C#N)c1ccc(Cl)cc1 (racemic) [Example 27]")
"0.3 µM"

For each entry beneath this line, provide reported MEC.
1. Cc1cc(OCc2c(F)cccc2F)c2nc(C)c(C(=O)NC(C#N)c3ccc(Cl)cc3)n2c1 (racemic) [Example 8]
2. Cc1cc(OCc2c(F)cccc2F)c2nc(C)c(C(=O)NC3(C#N)CCC3)n2c1 [Example 5]
3. Cc1cc(OCc2c(F)ccc(C3CC3)c2F)c2nc(C)c(C(=O)NCC3CCC(C#N)CC3)n2c1 (stereo not drawn) [Example 40]
4. Cc1cc(OCc2c(F)cccc2F)c2nc(C)c(C(=O)NC(C#N)C(N)=O)n2c1 (racemic) [Example 34]
5. Cc1cc(OCc2c(F)cccc2F)c2nc(C)c(C(=O)NCCCCCC#N)n2c1 [Example 10]

Result:
["0.1 µM", "0.03 µM", "3 µM", "1 µM", "0.1 µM"]

For each of the items listed, what is its MEC?
1. Cc1cc(OCc2ncccc2F)c2nc(C)c(C(=O)NC(C#N)c3ccc(Cl)cc3)n2c1 (racemic) [Example 19]
2. Cc1cc(OCc2c(F)cccc2F)c2nc(C)c(C(=O)NCC(N)CCC#N)n2c1 (racemic) [Example 44]
3. Cc1cc(OCC2CC(F)(F)C2)c2nc(C)c(C(=O)NC(C#N)c3ccc(Cl)cc3)n2c1 (racemic) [Example 31]
4. Cc1cc(OCc2c(F)cccc2F)c2nc(C)c(C(=O)NCC(N)CCCC#N)n2c1 (single isomer, unassigned) [Example 47]
5. Cc1cc(OCCC(C)C)c2nc(C)c(C(=O)NC(C#N)c3ccc(Cl)cc3)n2c1 (racemic) [Example 25]

Result:
["1 µM", "1 µM", "10 µM", "1 µM", "3 µM"]

# batch: return MEC for each of the 2 compounds below
1. Cc1cc(OCc2c(F)cccc2F)c2nc(C)c(C(=O)NC(C)(C#N)C3CC3)n2c1 (racemic) [Example 6]
2. CCOc1ccc(NC(=O)c2c(C)nc3c(OCc4c(F)cccc4F)cc(C)cn23)cc1C#N [Example 32]

Result:
0.1 µM
1 µM

====

Please provide measured MEC for the entries that follow.
- study-target: recombinant guanylate cyclase reporter cell line (Rattus norvegicus, UniProt P19686+P20595)
- Construct: expressed in transfected cells
- assay-method-text: Effect on a recombinant guanylate cyclase reporter cell line (B-2)
- Assay type: cell-based
- condition: MEC = minimum effective concentration; in some cases mean values from individual determinations
- Procedure: B-2. Effect on a Recombinant Guanylate Cyclase Reporter Cell Line The cellular activity of the compounds according to the invention is determined using a recombinant guanylate cyclase reporter cell line, as described in F. Wunder et al., Anal. Biochem. 339, 104-112 (2005). Representative MEC values (MEC=minimum effective concentration) for the compounds of the invention are shown in the table below (in some cases as mean values from individual determinations): […]
Answers are plain numbers, in µM.

Before answering, review these 2 worked examples.
>>> meas_value("Cc1cc(OCc2c(F)cccc2F)c2nc(C)c(C(=O)NCC3CCC(C#N)CC3)n2c1 (stereo not shown)")
0.1
>>> meas_value("Cc1cc(OCc2c(F)cccc2F)c2nc(C)c(C(=O)Nc3ccccc3CC#N)n2c1")
0.3

Return reported MEC values for all items listed beneath this line.
1. COc1ccc(NC(=O)c2c(C)nc3c(OCc4c(F)cccc4F)cc(C)cn23)cc1C#N
2. Cc1cc(OCc2c(F)cccc2F)c2nc(C)c(C(=O)NC(C)C#N)n2c1 (single isomer, unassigned) [Example 16]

Result:
1. 0.3
2. 0.3
